System: 20-HETE formation (CYP4) in HLM
ASSAY_COMMENT: IC50 determination, 20-HETE formation in HLM
Assay type: biochemical, human
CONDITION_INFO: HLM 300 μg/ml, AA 100 μM, 12 concentrations

SMILES_NOTATION: O=C1CCCN1Cc1ccc(C2CCN(c3cn[nH]c3)CC2)cc1
ASSAY_SYSTEM: 20-HETE formation (CYP4) in HLM
IC50, µM: 0.0542
//
SMILES_NOTATION: COCc1ccc(C2CCN(c3ccn[nH]3)CC2)cc1
ASSAY_SYSTEM: 20-HETE formation (CYP4) in HLM
IC50, µM: 0.28
//
SMILES_NOTATION: CCS(=O)(=O)c1ccc(C2CCN(c3ccn[nH]3)CC2)cc1
ASSAY_SYSTEM: 20-HETE formation (CYP4) in HLM
IC50, µM: 0.11
//
SMILES_NOTATION: c1ccc(C2CCN(c3ccn[nH]3)CC2)cc1
ASSAY_SYSTEM: 20-HETE formation (CYP4) in HLM
IC50, µM: 0.44
//
SMILES_NOTATION: COc1ccc(C2CCN(c3cn[nH]c3)CC2)cc1F
ASSAY_SYSTEM: 20-HETE formation (CYP4) in HLM
IC50, µM: 0.05
//
SMILES_NOTATION: c1ccc(SC2CCN(c3cn[nH]c3)CC2)cc1
ASSAY_SYSTEM: 20-HETE formation (CYP4) in HLM
IC50, µM: 0.1
//
SMILES_NOTATION: c1ccc(C2CCN(c3cn[nH]c3)CC2)cc1
ASSAY_SYSTEM: 20-HETE formation (CYP4) in HLM
IC50, µM: 0.19
//
SMILES_NOTATION: Cc1ccc(C2CCN(c3cn[nH]c3)CC2)cc1
ASSAY_SYSTEM: 20-HETE formation (CYP4) in HLM
IC50, µM: 0.08
//
SMILES_NOTATION: COCc1ccc(C2CCN(c3cn[nH]c3)CC2)cc1
ASSAY_SYSTEM: 20-HETE formation (CYP4) in HLM
IC50, µM: 0.2

###

System: 20-HETE formation (CYP4) in RKM
ASSAY_COMMENT: Inhibition of 20-HETE formation at 250 or 500 nM in RKM microsomal incubations
Assay type: biochemical, rat
CONDITION_INFO: 500 nM compound; RKM 300 μg/ml
REPORTED_ENDPOINT: RKM % inh. @ 500 nM (%)

COMPOUND: Cc1cccc(C2CCN(c3cn[nH]c3)CC2)c1 [Compound 34]
ASSAY_SYSTEM: 20-HETE formation (CYP4) in RKM
MEASURED_NUMBER: 36.00
--
COMPOUND: COc1ccc(C2CCN(c3cn[nH]c3)CC2)c(F)c1 [Compound 47]
ASSAY_SYSTEM: 20-HETE formation (CYP4) in RKM
MEASURED_NUMBER: 0.00
--
COMPOUND: O=S(=O)(c1ccccc1)C1CCN(c2ccn[nH]2)CC1 [Compound 41]
ASSAY_SYSTEM: 20-HETE formation (CYP4) in RKM
MEASURED_NUMBER: 0.00
--
COMPOUND: Cc1cccc(C2CCN(c3ccn[nH]3)CC2)c1 [Compound 33]
ASSAY_SYSTEM: 20-HETE formation (CYP4) in RKM
MEASURED_NUMBER: 16.00
--
COMPOUND: CC(=O)N(C)c1ccc(C2CCN(c3cn[nH]c3)CC2)cn1 [Compound 13]
ASSAY_SYSTEM: 20-HETE formation (CYP4) in RKM
MEASURED_NUMBER: 27.00
--
COMPOUND: COC(=O)c1ccc(C2CCN(c3ccn[nH]3)CC2)cc1 [Compound 11]
ASSAY_SYSTEM: 20-HETE formation (CYP4) in RKM
MEASURED_NUMBER: 1.60
--
COMPOUND: Fc1ccccc1C1CCN(c2ccn[nH]2)CC1 [Compound 50]
ASSAY_SYSTEM: 20-HETE formation (CYP4) in RKM
MEASURED_NUMBER: 18.00
--
COMPOUND: c1cnc(C2CCN(c3cn[nH]c3)CC2)nc1 [Compound 10]
ASSAY_SYSTEM: 20-HETE formation (CYP4) in RKM
MEASURED_NUMBER: 0.00
--
COMPOUND: COc1ccc(C2CCN(c3ccn[nH]3)CC2)cc1 [Compound 19]
ASSAY_SYSTEM: 20-HETE formation (CYP4) in RKM
MEASURED_NUMBER: 0.00
--
COMPOUND: c1cnc(C2CCN(c3ccn[nH]3)CC2)nc1 [Compound 9]
ASSAY_SYSTEM: 20-HETE formation (CYP4) in RKM
MEASURED_NUMBER: 0.00
--
COMPOUND: Cc1ccccc1C1CCN(c2ccn[nH]2)CC1 [Compound 35]
ASSAY_SYSTEM: 20-HETE formation (CYP4) in RKM
MEASURED_NUMBER: 4.00
--
COMPOUND: c1ccc(CC2CCN(c3cn[nH]c3)CC2)cc1 [Compound 3, 4-Benzyl-1-(1H-pyrazol-4-yl)piperidine]
ASSAY_SYSTEM: 20-HETE formation (CYP4) in RKM
MEASURED_NUMBER: 0.00
--
COMPOUND: CC(=O)Nc1ccc(C2CCN(c3cn[nH]c3)CC2)cc1 [Compound 30]
ASSAY_SYSTEM: 20-HETE formation (CYP4) in RKM
MEASURED_NUMBER: 40.00
--
COMPOUND: Fc1ccccc1C1CCN(c2cn[nH]c2)CC1 [Compound 51]
ASSAY_SYSTEM: 20-HETE formation (CYP4) in RKM
MEASURED_NUMBER: 26.00
--
COMPOUND: COc1cc(C2CCN(c3cn[nH]c3)CC2)ccn1 [Compound 15]
ASSAY_SYSTEM: 20-HETE formation (CYP4) in RKM
MEASURED_NUMBER: 27.00
--
COMPOUND: COc1cccc(C2CCN(c3ccn[nH]3)CC2)c1 [Compound 7]
ASSAY_SYSTEM: 20-HETE formation (CYP4) in RKM
MEASURED_NUMBER: 0.00
--
COMPOUND: Fc1cccc(C2CCN(c3ccn[nH]3)CC2)c1 [Compound 48]
ASSAY_SYSTEM: 20-HETE formation (CYP4) in RKM
MEASURED_NUMBER: 8.00
--
COMPOUND: Fc1cccc(C2CCN(c3cn[nH]c3)CC2)c1 [Compound 49]
ASSAY_SYSTEM: 20-HETE formation (CYP4) in RKM
MEASURED_NUMBER: 28.00
--
COMPOUND: CC(=O)N(C)c1ccc(C2CCN(c3ccn[nH]3)CC2)cc1 [Compound 27]
ASSAY_SYSTEM: 20-HETE formation (CYP4) in RKM
MEASURED_NUMBER: 0.00
--
COMPOUND: COc1ccc(N2CCN(c3cn[nH]c3)CC2)cc1 [Compound 6]
ASSAY_SYSTEM: 20-HETE formation (CYP4) in RKM
MEASURED_NUMBER: 1.20
--
COMPOUND: c1cnc(N2CCN(c3cn[nH]c3)CC2)nc1 [Compound 4]
ASSAY_SYSTEM: 20-HETE formation (CYP4) in RKM
MEASURED_NUMBER: 0.00

###

ASSAY_COMMENT: HLM stability determination
Type: in vitro ADME, human
CONDITION_INFO: HLM 500 μg/ml, 1 μM compound, NADPH, relative to 0 min
Stability HLM % @ 30 min for assorted compounds

COMPOUND: c1ccc(CC2CCN(c3cn[nH]c3)CC2)cc1 [Compound 3, 4-Benzyl-1-(1H-pyrazol-4-yl)piperidine]
Stability HLM % @ 30 min: 85%

COMPOUND: O=C1CCCN1c1ccc(C2CCN(c3cn[nH]c3)CC2)cc1 [Compound 100]
Stability HLM % @ 30 min: 95%

COMPOUND: c1ccc(SC2CCN(c3cn[nH]c3)CC2)cc1 [Compound 40]
Stability HLM % @ 30 min: 82%

COMPOUND: COCc1ccc(C2CCN(c3cn[nH]c3)CC2)cc1 [Compound 26]
Stability HLM % @ 30 min: 100%

COMPOUND: CCS(=O)(=O)c1ccc(C2CCN(c3ccn[nH]3)CC2)cc1 [Compound 58]
Stability HLM % @ 30 min: 97%

COMPOUND: COCc1ccc(C2CCN(c3ccn[nH]3)CC2)cc1 [Compound 25]
Stability HLM % @ 30 min: 100%

COMPOUND: COc1ccc(C2CCN(c3cn[nH]c3)CC2)cc1F [Compound 44]
Stability HLM % @ 30 min: 100%

COMPOUND: COc1ccc(C2CCN(c3cn[nH]c3)CC2)cc1 [Compound 20]
Stability HLM % @ 30 min: 92%

COMPOUND: CCS(=O)(=O)c1ccc(C2CCN(c3cn[nH]c3)CC2)cc1 [Compound 52]
Stability HLM % @ 30 min: 100%
